Values were extracted from the supplement of paper PMC5908809.

Test system: KAI3 (IL-2 2.5 ng/mL)
Experiment: relative IC50 (inflection point of fitted viability curve, relative to fitted max inhibition); higher = less sensitive
Conditions: 72 h
Reported relative IC50 values follow for various molecules
Please give a number only; it is taken to be in nM.

Cc1ccc(NC(=O)c2ccc(CN3CCN(C)CC3)cc2)cc1Nc1nccc(-c2cccnc2)n1; 3230
CNC(=O)c1nn(C)c2c1C(C)(C)Cc1cnc(Nc3ccc(N4CCN(C)CC4)cc3)nc1-2; 1230
CCC1=C[C@@H]2CN(C1)Cc1c([nH]c3ccccc13)[C@@](C(=O)OC)(c1cc3c(cc1OC)N(C)[C@H]1[C@@](O)(C(=O)OC)[C@H](OC(C)=O)[C@]4(CC)C=CCN5CC[C@]31[C@@H]54)C2; 7.28

Next up:
Q: Return the recorded relative IC50 value; entry: C[C@@H](Oc1ccc2[nH]nc(/C=C/c3cnn(CCO)c3)c2c1)c1c(Cl)cncc1Cl
Ans: 20.9

====

Reported percent inhibition of viability values follow for various molecules
System: normal primary NK cells, pool 2 (3 donors) (IL-2 2.5 ng/mL);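 note: normalised to DMSO-only wells as negative and benzethonium chloride as positive control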
Test: percent inhibition of viability; higher = more inhibition
Details: 72 h; 100 nM
Report field: quantity (unit follows the number).

Cc1nc(C(=O)NCC(=O)O)c(O)c2ccc(Oc3ccccc3)cc12 [FG-4592] (max concentration tested 10000 nM); -6.37%

Q: Return the recorded percent inhibition of viability value; entry: CCNC(=O)c1noc(-c2cc(C(C)C)c(O)cc2O)c1-c1ccc(CN2CCOCC2)cc1 [Luminespib] (max concentration tested 1000 nM)
Ans: 74.9%

Q: Return the recorded percent inhibition of viability value; entry: CC(C)C[C@H](NC(=O)[C@@H](COC(C)(C)C)NC(=O)[C@H](Cc1ccc(O)cc1)NC(=O)[C@H](CO)NC(=O)[C@H](Cc1c[nH]c2ccccc12)NC(=O)[C@H](Cc1cnc[nH]1)NC(=O)[C@@H]1CCC(=O)N1)C(=O)N[C@@H](CCCNC(=N)N)C(=O)N1CCC[C@H]1C(=O)NNC(N)=O [Goserelin] (max concentration tested 10000 nM)
Ans: -2.35%

Q: Return the recorded percent inhibition of viability value; entry: CC(=O)Nc1ccc(C(=O)Nc2ccccc2N)cc1 [Tacedinaline] (max concentration tested 1000 nM)
Ans: 6.96%

Q: Return the recorded percent inhibition of viability value; entry: CCC/C=C/C=C/C(=O)O[C@H]1/C(=C/C(=O)OC)C[C@H]2C[C@H]([C@@H](C)O)OC(=O)C[C@H](O)C[C@@H]3C[C@H](OC(C)=O)C(C)(C)[C@](O)(C[C@@H]4C/C(=C/C(=O)OC)C[C@H](/C=C/C(C)(C)[C@]1(O)O2)O4)O3 [Bryostatin 1] (max concentration tested 100 nM)
Ans: -37.6%

Q: Return the recorded percent inhibition of viability value; entry: CC(C)CC(=O)Nc1n[nH]c2c1CN(C(=O)C1CCN(C)CC1)C2(C)C (max concentration tested 10000 nM)
Ans: 10.1%

Q: Return the recorded percent inhibition of viability value; entry: CC(C)n1nc(-c2ccc3oc(N)nc3c2)c2c(N)ncnc21 [MLN-0128] (max concentration tested 1000 nM)
Ans: 28%

Q: Return the recorded percent inhibition of viability value; entry: CNc1nc(-c2ccc3c(N)n[nH]c3c2)cc(N2C[C@@H](C(=O)NC3CCCCC3)CC[C@H]2C)n1 (max concentration tested 10000 nM)
Ans: -3.8%
